test_protocol: refractive index (Na D-line) (dimensionless)
settings: 303.15 K; 101.33 kPa; Liquid; Standard Abbe refractometry
Assignment: determine reported refractive index for the given compounds.
Numbers only.

>>> print(df.to_string())
                                   compound  value_reported
0         COC(=O)c1ccccc1 [methyl benzoate]          1.5127
1                              Cc1ccc(C)cc1          1.4911
2                              Cc1cccc(C)c1           1.492
3                                CCc1ccccc1           1.491
4  CC(=O)OCCC(C)C [3-methylbutyl ethanoate]          1.3959

refractive index reading for "Cc1ccccc1C" : 1.5001

----------
settings: 313.15 K; 101.33 kPa; Liquid; Capillary tube (Ostwald / Ubbelohde) method
readout_type: viscosity (mPa·s)
One number for each entry, in mPa·s.

>>> print(df.to_string())
                                   molecule  readout_type  value_reported
0         COC(=O)c1ccccc1 [methyl benzoate]     viscosity           1.414
1  CC(=O)OCCC(C)C [3-methylbutyl ethanoate]     viscosity           0.649
2                              Cc1ccc(C)cc1     viscosity           0.517

Hi team, please reply with viscosity for each item in this list.
1. Cc1cccc(C)c1
2. CCc1ccccc1
3. Cc1ccccc1C

Result block:
1: 0.508; 2: 0.538; 3: 0.621

----------
test_protocol: refractive index (Na D-line) (dimensionless)
settings: 313.15 K; 101.33 kPa; Liquid; Standard Abbe refractometry
Assignment: determine reported refractive index for the given compounds.
Give bare numbers.

Worked examples, 5 compounds total:
In [3]: df
Out[3]:
                                   compound      readout_type  value_reported
0                                CCc1ccccc1  refractive index          1.4891
1                                Cc1ccccc1C  refractive index          1.4981
2  CC(=O)OCCC(C)C [3-methylbutyl ethanoate]  refractive index          1.3945
3                              Cc1cccc(C)c1  refractive index          1.4901
4                              Cc1ccc(C)cc1  refractive index          1.4902

Field: next compound
refractive index reading for COC(=O)c1ccccc1 [methyl benzoate] : 1.5083

----------
settings: 303.15 K; 101.33 kPa; Liquid; Pycnometric method
Tag: 1 (yes) if measured mass density is not below 900 kg/m3, 0 (no) if it is.

In [3]: df
Out[3]:
                            compound    group
0                       Cc1cccc(C)c1   0 (no)
1  COC(=O)c1ccccc1 [methyl benzoate]  1 (yes)
2                         Cc1ccccc1C   0 (no)
3                       Cc1ccc(C)cc1   0 (no)

Turning now to a further compound:
Query block: // inclusive: mass density at least 900 kg/m3? input: CC(=O)OCCC(C)C [3-methylbutyl ethanoate]
Result block: 0 (no)

----------
settings: 303.15 K; 101.33 kPa; Liquid; Capillary tube (Ostwald / Ubbelohde) method
Hi! Could you tag entries with viscosity below 0.6 mPa·s as t, and those at or above as f? Much appreciated.

Sample answers from the record:
>>> print(df.to_string())
                                   compound  group
0  CC(=O)OCCC(C)C [3-methylbutyl ethanoate]      f
1        Cc1ccc(C)cc1 [1,4-dimethylbenzene]      t
2         COC(=O)c1ccccc1 [methyl benzoate]      f
3          Cc1ccccc1C [1,2-dimethylbenzene]      f

Turning now to a further compound:
Query block: Record Cc1cccc(C)c1 [1,3-dimethylbenzene] : is its viscosity strictly below 0.6 mPa·s?
Result block: t
